Origin of values: patent US20230365592A1

Target: human PAH with the R408W mutation (Homo sapiens, UniProt P00439, R408W)
Construct: expressed in transfected cells
Sequence (P00439 whole entry R408W): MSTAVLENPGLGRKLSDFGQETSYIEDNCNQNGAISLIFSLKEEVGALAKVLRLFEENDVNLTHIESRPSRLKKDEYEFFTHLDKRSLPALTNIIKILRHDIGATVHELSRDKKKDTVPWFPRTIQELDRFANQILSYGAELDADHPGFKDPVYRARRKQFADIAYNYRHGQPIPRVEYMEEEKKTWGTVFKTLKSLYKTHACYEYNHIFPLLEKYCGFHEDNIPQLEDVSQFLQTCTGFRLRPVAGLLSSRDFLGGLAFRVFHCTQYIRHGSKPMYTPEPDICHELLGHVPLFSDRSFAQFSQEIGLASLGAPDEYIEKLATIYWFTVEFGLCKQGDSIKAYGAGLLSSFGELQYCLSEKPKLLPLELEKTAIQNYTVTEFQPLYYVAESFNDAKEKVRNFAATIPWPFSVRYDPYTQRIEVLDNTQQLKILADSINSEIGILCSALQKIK
Experiment: Cell Based Phenylalanine Flux Assay;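 further: after compound treatment, cells received sepiapterin plus isotope-labelled Phenylalanine for 4 hours, then labelled Tyrosine in the medium was quantified, 10-point 2-fold dilution series run in duplicate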
Conditions: A375 cells expressing R408W PAH; 24 hrs with compound, then 20 µM sepiapterin and 800 µM 13C9,15N-Phenylalanine for 4 hours; 13C-Tyrosine by LC-MS; average where tested multiple times; read-out: AC50
Listed molecules paired with reported AC50

molecule	AC50
Cc1cccn2nc([C@@H]3c4nc[nH]c4CCN3c3nnc(C4CC(F)(F)C4)o3)cc12 (single isomer, unassigned)	1 to 5 µM

# return recorded AC50 for input c1cncc(-c2nnc(N3CCc4[nH]cnc4C3c3cc4c(C5CC5)cccn4n3)o2)c1 (stereo not shown)
> 5 µM

Determine its reported AC50: Cn1cc(-c2ncc(C(=O)N3CCc4[nH]cnc4C3c3cc4c(C(F)F)cccn4n3)o2)cn1 (stereo not shown)
1 to 5 µM

Consider the molecule O=C(c1nnc(N2CCC(F)CC2)o1)N1CCc2[nH]cnc2C1c1cc2ccccn2n1 (stereo not shown) . State its measured AC50.
1 to 5 µM
